The measured values listed here are drawn from the supplement of paper PMC11061612.

system: NCI-H2342 (Lung Adenocarcinoma); assay: combination Emax (second highest fraction inhibited in the dose matrix, 72 h); higher = more inhibition; extreme values may be limits of the assay
Entries and their combination Emax values follow.
measure.name: combination Emax

{"compound": "COc1nnc2ccc(N3CCC(c4ccc(OCCN5CCN(C)C(=O)[C@H]5C)cc4)CC3)nn12 [AZD5153] + Cn1cnc2c(F)c(Nc3ccc(Br)cc3Cl)c(C(=O)NOCCO)cc21 [Selumetinib] (first compound max 1 µM, 7x7, partner max 10 µM)", "measure.name": "combination Emax", "recorded.measurement": 0.347}
{"compound": "CC(=O)c1c(C)c2cnc(Nc3ccc(N4CCNCC4)cn3)nc2n(C2CCCC2)c1=O [Palbociclib] + Cc1c2c(nn1C)CSCc1cc(n(C)n1)CSc1cc(c3ccccc3c1)OCCCc1c(C(=O)O)n(C)c3c-2c(Cl)ccc13 [AZD5991] (first compound max 10 µM, 7x7, partner max 1 µM)", "measure.name": "combination Emax", "recorded.measurement": 0.348}
{"compound": "C=CCn1c(=O)c2cnc(Nc3ccc(N4CCN(C)CC4)cc3)nc2n1-c1cccc(C(C)(C)O)n1 [AZD1775] + C1CN(CCC1(C(=O)N[C@@H](CCO)C2=CC=C(C=C2)Cl)N)C3=NC=NC4=C3C=CN4 [Capivasertib] (first compound max 3 µM, partner max 3 µM)", "measure.name": "combination Emax", "recorded.measurement": 0.282}
{"compound": "C=CCn1c(=O)c2cnc(Nc3ccc(N4CCN(C)CC4)cc3)nc2n1-c1cccc(C(C)(C)O)n1 [AZD1775] + O=C(c1cc(Cc2n[nH]c(=O)c3ccccc23)ccc1F)N1CCN(C(=O)C2CC2)CC1 [Olaparib] (first compound max 1 µM, partner max 10 µM)", "measure.name": "combination Emax", "recorded.measurement": 0.229}

====

system: IST-MES1 (Mesothelioma); assay: Bliss excess, mean over the matrix (fraction); higher = more synergy
Below: a set of entries, each annotated with reported Bliss excess.
measure.name: Bliss excess

{"molecule": "CCN(CCO)CCCOc1ccc2c(Nc3cc(CC(=O)Nc4cccc(F)c4)[nH]n3)ncnc2c1 [AZD2811] + O=C(c1cc(Cc2n[nH]c(=O)c3ccccc23)ccc1F)N1CCN(C(=O)C2CC2)CC1 [Olaparib] (first compound max 1 µM, 7x7, partner max 10 µM)", "measure.name": "Bliss excess", "recorded.measurement": -0.0102}
{"molecule": "CN(CCO)CC[C@H](CSc1ccccc1)Nc1ccc(S(=O)(=O)NC(=O)c2ccc(N3CCC([C@@H](O)c4ccccc4-c4ccc(Cl)cc4)CC3)cc2)cc1S(=O)(=O)C(F)(F)F [AZD4320] + CCN(CCO)CCCOc1ccc2c(Nc3cc(CC(=O)Nc4cccc(F)c4)[nH]n3)ncnc2c1 [AZD2811] (first compound max 1 µM, 7x7, partner max 1 µM)", "measure.name": "Bliss excess", "recorded.measurement": -0.0265}
{"molecule": "CN(CCO)CC[C@H](CSc1ccccc1)Nc1ccc(S(=O)(=O)NC(=O)c2ccc(N3CCC([C@@H](O)c4ccccc4-c4ccc(Cl)cc4)CC3)cc2)cc1S(=O)(=O)C(F)(F)F [AZD4320] + CN(C)CCCOc1ccc(-c2ccc3ncc4c(c3c2)n(C2CCOCC2)c(=O)n4C)cn1 [AZD0156] (first compound max 1 µM, 7x7, partner max 1 µM)", "measure.name": "Bliss excess", "recorded.measurement": -0.041}
{"molecule": "Cn1cnc2c(F)c(Nc3ccc(Br)cc3Cl)c(C(=O)NOCCO)cc21 [Selumetinib] + CCN(CCO)CCCOc1ccc2c(Nc3cc(CC(=O)Nc4cccc(F)c4)[nH]n3)ncnc2c1 [AZD2811] (first compound max 10 µM, 7x7, partner max 1 µM)", "measure.name": "Bliss excess", "recorded.measurement": -0.0718}

====

system: HEC-1 (Endometrial Carcinoma); assay: combination Emax (second highest fraction inhibited in the dose matrix, 72 h); higher = more inhibition; extreme values may be limits of the assay
measure.name: combination Emax

{"molecule": "CC(=O)c1c(C)c2cnc(Nc3ccc(N4CCNCC4)cn3)nc2n(C2CCCC2)c1=O [Palbociclib] + CN(CC[C@H](CSC1=CC=CC=C1)NC2=C(C=C(C=C2)S(=O)(=O)NC(=O)C3=CC=C(C=C3)N4CCC(CC4)[C@H](C5=CC=CC=C5C6=CC=C(C=C6)Cl)O)S(=O)(=O)C(F)(F)F)CCO [AZD4320] (first compound max 10 µM, 7x7, partner max 1 µM)", "recorded.measurement": 0.298}
{"molecule": "CN(C)CCCOc1ccc(-c2ccc3ncc4c(c3c2)n(C2CCOCC2)c(=O)n4C)cn1 [AZD0156] + CCN(CCO)CCCOc1ccc2c(Nc3cc(CC(=O)Nc4cccc(F)c4)[nH]n3)ncnc2c1 [AZD2811] (first compound max 1 µM, 7x7, partner max 1 µM)", "recorded.measurement": 0.0528}
{"molecule": "Cc1c2c(nn1C)CSCc1cc(n(C)n1)CSc1cc(c3ccccc3c1)OCCCc1c(C(=O)O)n(C)c3c-2c(Cl)ccc13 [AZD5991] + CC1(C)CCC(CN2CCN(c3ccc(C(=O)NS(=O)(=O)c4ccc(NCC5CCOCC5)c([N+](=O)[O-])c4)c(Oc4cnc5[nH]ccc5c4)c3)CC2)=C(c2ccc(Cl)cc2)C1 [Venetoclax] (first compound max 1 µM, 7x7, partner max 1 µM)", "recorded.measurement": 0.173}
{"molecule": "COc1cccc(OCCCN)c1-c1cc(Nc2cnc(C#N)cn2)n[nH]1 [Prexasertib] + C=CCn1c(=O)c2cnc(Nc3ccc(N4CCN(C)CC4)cc3)nc2n1-c1cccc(C(C)(C)O)n1 [AZD1775] (first compound max 1 µM, partner max 1 µM)", "recorded.measurement": 0.715}

====

Below, each of the compounds is paired with its reported Bliss excess value.
test system: COLO-680N (Esophageal Squamous Cell Carcinoma); test: Bliss excess, mean over the matrix (fraction); higher = more synergy

{"compound": "COc1nnc2ccc(N3CCC(c4ccc(OCCN5CCN(C)C(=O)[C@H]5C)cc4)CC3)nn12 [AZD5153] + CCN(CCO)CCCOc1ccc2c(Nc3cc(CC(=O)Nc4cccc(F)c4)[nH]n3)ncnc2c1 [AZD2811] (first compound max 1 µM, 7x7, partner max 1 µM)", "Bliss excess": -0.0833}
{"compound": "Cc1c2c(nn1C)CSCc1cc(n(C)n1)CSc1cc(c3ccccc3c1)OCCCc1c(C(=O)O)n(C)c3c-2c(Cl)ccc13 [AZD5991] + CN(C)CCCOc1ccc(-c2ccc3ncc4c(c3c2)n(C2CCOCC2)c(=O)n4C)cn1 [AZD0156] (first compound max 1 µM, 7x7, partner max 1 µM)", "Bliss excess": 0.0049}
{"compound": "CC1(C)CCC(CN2CCN(c3ccc(C(=O)NS(=O)(=O)c4ccc(NCC5CCOCC5)c([N+](=O)[O-])c4)c(Oc4cnc5[nH]ccc5c4)c3)CC2)=C(c2ccc(Cl)cc2)C1 [Venetoclax] + C1CN(CCC1(C(=O)N[C@@H](CCO)C2=CC=C(C=C2)Cl)N)C3=NC=NC4=C3C=CN4 [Capivasertib] (first compound max 1 µM, 7x7, partner max 3 µM)", "Bliss excess": -0.0482}

====

tested on: REH (B-Lymphoblastic Leukemia); test: Bliss excess, mean over the matrix (fraction); higher = more synergy

{"compound": "Cc1cc2ncnn2cc1Nc1ncc2c(n1)n(C1CCOCC1)c(=O)n2C [AZD7648] + COc1cc([C@@H]2c3cc4c(cc3[C@@H](O[C@@H]3O[C@@H]5CO[C@@H](C)O[C@H]5[C@H](O)[C@H]3O)[C@H]3COC(=O)[C@H]23)OCO4)cc(OC)c1O [Etoposide] (first compound max 10 µM, 7x7, partner max 10 µM)", "Bliss excess": 0.158}
{"compound": "CCc1c2c(nc3ccc(O)cc13)-c1cc3c(c(=O)n1C2)COC(=O)[C@]3(O)CC [SN-38] + CN(C)CCCOc1ccc(-c2ccc3ncc4c(c3c2)n(C2CCOCC2)c(=O)n4C)cn1 [AZD0156] (first compound max 0.3 µM, 7x7, partner max 1 µM)", "Bliss excess": -0.0093}
{"compound": "C[C@@H]1COCCN1c1cc(C2([S@](C)(=N)=O)CC2)nc(-c2ccnc3[nH]ccc23)n1 [AZD6738] + O=C(c1cc(Cc2n[nH]c(=O)c3ccccc23)ccc1F)N1CCN(C(=O)C2CC2)CC1 [Olaparib] (first compound max 10 µM, 7x7, partner max 10 µM)", "Bliss excess": 0.0021}

====

tested on: RERF-GC-1B (Gastric Carcinoma); assay: Bliss excess, mean over the matrix (fraction); higher = more synergy
measure.name: Bliss excess

{"compound": "Cc1cc2ncnn2cc1Nc1ncc2c(n1)n(C1CCOCC1)c(=O)n2C [AZD7648] + O=C(c1cc(Cc2n[nH]c(=O)c3ccccc23)ccc1F)N1CCN(C(=O)C2CC2)CC1 [Olaparib] (first compound max 10 µM, 7x7, partner max 10 µM)", "recorded.measurement": -0.076}
{"compound": "COc1cc2ncnc(Nc3ccc(F)c(Cl)c3)c2cc1OCCCN1CCOCC1 [Gefitinib] + CC(C)n1c(=O)n(C)c2cnc3cc(F)c(-c4ccc(OCCCN5CCCCC5)nc4)cc3c21 [AZD1390] (first compound max 10 µM, 7x7, partner max 0.3 µM)", "recorded.measurement": -0.092}
{"compound": "CS(=O)(=O)CCNCc1ccc(-c2ccc3ncnc(Nc4ccc(OCc5cccc(F)c5)c(Cl)c4)c3c2)o1 [Lapatinib] + C[C@@H](Oc1cc(-c2cnn(C3CCNCC3)c2)cnc1N)c1c(Cl)ccc(F)c1Cl [Crizotinib] (first compound max 10 µM, 7x7, partner max 10 µM)", "recorded.measurement": -0.0237}
{"compound": "CC1(C)CCC(CN2CCN(c3ccc(C(=O)NS(=O)(=O)c4ccc(NCC5CCOCC5)c([N+](=O)[O-])c4)c(Oc4cnc5[nH]ccc5c4)c3)CC2)=C(c2ccc(Cl)cc2)C1 [Venetoclax] + C1CN(CCC1(C(=O)N[C@@H](CCO)C2=CC=C(C=C2)Cl)N)C3=NC=NC4=C3C=CN4 [Capivasertib] (first compound max 1 µM, 7x7, partner max 3 µM)", "recorded.measurement": -0.0297}
{"compound": "Cn1cnc2c(F)c(Nc3ccc(Br)cc3Cl)c(C(=O)NOCCO)cc21 [Selumetinib] + C[C@@H]1COCCN1C2=NC(=NC(=C2)C3(CC3)[S@](=N)(=O)C)C4=C5C=CNC5=NC=C4 [AZD6738] (first compound max 10 µM, 7x7, partner max 10 µM)", "recorded.measurement": 0.152}
{"compound": "CN(C)CCCOc1ccc(-c2ccc3ncc4c(c3c2)n(C2CCOCC2)c(=O)n4C)cn1 [AZD0156] + C=CCn1c(=O)c2cnc(Nc3ccc(N4CCN(C)CC4)cc3)nc2n1-c1cccc(C(C)(C)O)n1 [AZD1775] (first compound max 1 µM, partner max 1 µM)", "recorded.measurement": -0.0318}
{"compound": "COc1nnc2ccc(N3CCC(c4ccc(OCCN5CCN(C)C(=O)[C@H]5C)cc4)CC3)nn12 [AZD5153] + CN(CC[C@H](CSC1=CC=CC=C1)NC2=C(C=C(C=C2)S(=O)(=O)NC(=O)C3=CC=C(C=C3)N4CCC(CC4)[C@H](C5=CC=CC=C5C6=CC=C(C=C6)Cl)O)S(=O)(=O)C(F)(F)F)CCO [AZD4320] (first compound max 1 µM, 7x7, partner max 1 µM)", "recorded.measurement": 0.014}
{"compound": "Cc1c2c(nn1C)CSCc1cc(n(C)n1)CSc1cc(c3ccccc3c1)OCCCc1c(C(=O)O)n(C)c3c-2c(Cl)ccc13 [AZD5991] + CN(C)CCCOc1ccc(-c2ccc3ncc4c(c3c2)n(C2CCOCC2)c(=O)n4C)cn1 [AZD0156] (first compound max 1 µM, 7x7, partner max 1 µM)", "recorded.measurement": 0.0263}
{"compound": "Cc1cc2ncnn2cc1Nc1ncc2c(n1)n(C1CCOCC1)c(=O)n2C [AZD7648] + C[C@@H]1COCCN1C2=NC(=NC(=C2)C3(CC3)[S@](=N)(=O)C)C4=C5C=CNC5=NC=C4 [AZD6738] (first compound max 10 µM, 7x7, partner max 10 µM)", "recorded.measurement": 0.0094}
